Record form. Attribute: IC50. Fill in for each entry.
molecular target: Protein cereblon/DNA damage-binding protein 1 (Homo sapiens); test: Binding affinity to 6-his tagged CRBN (1 to 442 residues)/ DDB1 (1 to 1140 residues) (unknown origin) incubated for 20 mins by time-resolved fluorescence probe displacement assay; format: protein assay
Express the result in nM but write the number alone.

Query: Find the measured IC50 of Cn1nc(C2CCC(=O)NC2=O)c2ccc(NC3CCCN(C(=O)OC(C)(C)C)CC3)cc21 (centres undefined) and report it.
Reply: 40

Query: Write down IC50 measured for item CN(C(=O)OC(C)(C)C)C1CCN(c2cc3c(cc2F)c(C2CCC(=O)NC2=O)nn3C)CC1 (centres undefined)
Reply: 190

Query: Using the record for CN(C(=O)OC(C)(C)C)C1CCN(c2cccc(C3CCC(=O)NC3=O)c2)CC1 (centres undefined) , state its measured IC50.
Reply: 12000

Query: Return IC50 (reported value) for this molecule: Cn1nc(C2CCC(=O)NC2=O)c2ccc(N3CCC4(CCN(C(=O)OC(C)(C)C)C4)C3)cc21 (centres undefined)
Reply: 90

Query: Identify measured IC50 associated with CC(C)(C)OC(=O)N1CCC(CNc2ccc3c(ccn3C3CCC(=O)NC3=O)n2)CC1 (centres undefined)
Reply: 590

Query: Give the value of IC50 reported for the following: Cn1nc(C2CCC(=O)NC2=O)c2ccc(NC3CC4(C3)CN(C(=O)OC(C)(C)C)C4)cc21 (centres undefined)
Reply: 20

Query: Tell me IC50 reported for CN(C(=O)OC(C)(C)C)C1CCN(c2cccc3c(C4CCC(=O)NC4=O)nn(C)c23)CC1 (centres undefined)
Reply: 190

Query: # return recorded IC50 for input CN(C(=O)OC(C)(C)C)C1CCN(c2ccc3c(C4CCC(=O)NC4=O)nn(C)c3c2)CC1 (centres undefined)
Reply: 80

Query: Report IC50, nothing else, for this molecule: CC(C)(C)OC(=O)N1CCC(CNc2cccc(C3CCC(=O)NC3=O)c2)CC1 (centres undefined)
Reply: 1900
